Biological target: CXCR7 receptor (Homo sapiens (Human))
Sequence (P25106 whole entry): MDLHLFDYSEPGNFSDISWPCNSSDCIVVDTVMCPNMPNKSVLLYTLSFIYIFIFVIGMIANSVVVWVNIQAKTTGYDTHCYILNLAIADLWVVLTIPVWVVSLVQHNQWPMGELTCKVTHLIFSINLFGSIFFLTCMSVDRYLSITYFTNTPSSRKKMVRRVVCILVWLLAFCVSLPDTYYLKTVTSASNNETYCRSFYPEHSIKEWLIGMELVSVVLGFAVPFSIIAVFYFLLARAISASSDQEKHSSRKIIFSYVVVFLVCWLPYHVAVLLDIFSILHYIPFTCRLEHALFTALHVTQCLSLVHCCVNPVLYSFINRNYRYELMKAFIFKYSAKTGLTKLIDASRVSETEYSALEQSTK
Experiment: Serum Binding Analysis: displacement of 125I-labeled SDF-1 from CXCR7 in 100% human serum
Conditions: 125I SDF-1 displacement in 100% human serum, MCF-7 and/or MDA-MB-435S CXCR7 transfected cells, 3 hrs at 4° C.; read-out: Avg Ser IC50
pIC50: −log10 of the molar value.
Reported pIC50 is given for each of the following compounds.

A selection of reference data follows.
> print(dat)
                                   compound  value.kind  experimental.value
1  O=C(N[C@H]1CCN(c2nccn3cccc23)C1)c1cn(-c2ccccc2)nn1       pIC50              ≥ 6.30
2  Cc1cc(Cl)ccc1-n1ccc(C(=O)N[C@H]2CCN(c3nccn4ccc(C)c34)C2)n1       pIC50        5.60 to 6.30
3  O=C(N[C@H]1CCN(c2nccn3ccnc23)C1)c1csc(N2CCC2)n1       pIC50              ≥ 6.30
4  Cc1ccccc1-n1ccc(C(=O)N[C@H]2CCN(c3nccn4ccc(C)c34)C2)n1       pIC50        5.60 to 6.30
5  CC(C)c1cn2cccc2c(N2CC[C@H](NC(=O)c3ncn(-c4ccc(F)cc4)n3)C2)n1       pIC50        5.60 to 6.30
6  Cc1cn2cccc2c(N2CC[C@H](NC(=O)c3ccn(-c4ccc(F)cc4)n3)C2)n1       pIC50              ≥ 6.30
7  Cc1cn2ccnc2c(N2CC[C@H](NC(=O)c3cn(-c4ccccc4)cn3)C2)n1       pIC50              ≥ 6.30
8  O=C(N[C@H]1CCN(c2nccn3cccc23)C1)c1ccn(-c2cccc(F)c2)n1       pIC50              ≥ 6.30

Find the measured pIC50 of `CCc1cn2cccc2c(N2CC[C@H](NC(=O)c3ncn(-c4ccc(F)cc4)n3)C2)n1` and report it.
≥ 6.30

Find the measured pIC50 of `Cc1ccn2ccnc(N3CC[C@H](NC(=O)c4csc(-c5ccc(F)cc5)n4)C3)c12` and report it.
5.60 to 6.30

Find the measured pIC50 of `Cc1ccn2ccnc(N3CC[C@H](NC(=O)c4coc(-c5ccccc5)n4)C3)c12` and report it.
5.60 to 6.30

Find the measured pIC50 of `O=C(N[C@H]1CCN(c2nccn3cccc23)C1)c1noc(-c2ccccc2)n1` and report it.
≥ 6.30

Find the measured pIC50 of O=C(NC1(CO)CCN(c2nccn3ccnc23)C1)c1ccn(-c2ccc(F)cc2)n1 (centres unmarked) and report it.
≥ 6.30

Find the measured pIC50 of `Cc1cn2cccc2c(N2CC[C@H](NC(=O)c3coc(-c4ccccc4)n3)C2)n1` and report it.
≥ 6.30

Find the measured pIC50 of `O=C(N[C@H]1CCN(c2nccn3ccnc23)C1)c1ccn(C2CCOCC2)n1` and report it.
5.60 to 6.30

Find the measured pIC50 of `O=C(N[C@H]1CCN(c2nccn3cccc23)C1)c1ncn(-c2ccc(F)cc2)n1` and report it.
≥ 6.30

Find the measured pIC50 of `CCc1cnc(C(=O)N[C@H]2CCN(c3nccn4cccc34)C2)nc1` and report it.
≥ 6.30

The measurements presented in this section are drawn from patent US10287292B2.
